system: MALME-3M melanoma; test: NCI tumour cell line growth inhibition, 48 h
The following compounds are listed with their measured log10(TGI) values.
readout type: log10(TGI) (log10 of the value in µM)

compound	target	number
Cc1cccc(NC(Nc2cccc(C)c2)=C(C(Cl)=C(Cl)Cl)[N+](=O)[O-])c1	MALME-3M melanoma	1.46
Clc1ccc(OCc2nnc3n2N=C(c2ccc(Cl)cc2Cl)CS3)c(Cl)c1	MALME-3M melanoma	1.90
CC/C=C\C/C=C\C1CC(=O)NCCCNCCCCN1 (stereo unspecified)	MALME-3M melanoma	1.90
CCN(CCO)CCNc1ccc(C)c2sc3cc(Cl)ccc3c(=O)c12	MALME-3M melanoma	0.55
c1ccc2c(c1)N=C(c1cccc3ccccc13)CC(c1cccc3ccccc13)S2 (stereo unspecified)	MALME-3M melanoma	1.46
COC(=O)NC/C=C\c1nc(CC/C=C\C(=O)OC2CC3CC(=O)O[C@@H](/C=C/CC(C)C)C[C@@H]4CCC(C)C(C[C@@H](OC)CC(C2)O3)O4)co1 (stereo partly specified)	MALME-3M melanoma	1.97
C=CC(=O)N1CCN(c2ncnc3c(F)c(-c4c(O)cccc4F)c(Cl)cc23)CC1	MALME-3M melanoma	1.39
CC(C)(C)OC(=O)c1ccc(NCc2cc(O)ccc2O)cc1	MALME-3M melanoma	0.60
COC(=O)/C=C\S/C(=C(/c1ccccc1)n1ccc(C(=O)OC)n1)c1ccccc1	MALME-3M melanoma	1.64

* * *

test system: A549 NSCLC; test: NCI tumour cell line growth inhibition, 48 h

compound	TGI
COC(=O)c1sc2ncc3c(c2c1N)CC(C)CC3 (stereo not given)	> 100 µM
CC/C=C\C/C=C\C/C=C\CCCCCCCC(=O)OC(COC(=O)CCCCCCCCCCCCCCCCC)COC1OC(CO)C(O)C(O)C1O (stereo not given)	> 25 µM
CCOC(=O)c1csc(NC(=O)CCCC#N)n1	> 100 µM
NC(=S)N=Nc1c(O)cc(Nc2ccc(Cl)cc2Cl)c2ccccc12	> 100 µM
CCCCCCNc1nc(NCCCCCC)c2[nH]c(NCCCCCC)nc2n1	14.8 µM
O=c1cc(-c2ccccc2F)[nH]c2cc3c(cc12)OCO3	> 100 µM
Cc1cc(C)nc(NS(=O)(=O)c2ccc(Nc3c4ccccc4nc4c(C(=O)N5CCN(CCOS(C)(=O)=O)CC5)ccc(Cl)c34)cc2)n1	> 100 µM
Cc1ccsc1C(=S)Nc1ccc(Cl)c(C(=O)OC(C(C)C)C(C)C)c1	> 100 µM
O=C1NN=C(c2c[nH]c3ccccc23)CC1NCc1ccccc1 (stereo not given)	> 100 µM
NC1=NC(=O)C(CC(=O)Nc2ccc([N+](=O)[O-])cc2[N+](=O)[O-])S1 (stereo not given)	> 100 µM
COc1cc2c3c(n(C)c(=O)c2cc1OC)-c1cc2c(cc1/C3=C/CCCCBr)OCO2	> 100 µM
O=C1c2ccccc2-c2cccc3ccc(Cc4ccccc4)c1c23	> 100 µM
COc1ccccc1C(=O)c1ccc2ccccc2c1	> 100 µM
COc1ccc(-c2cc(-c3cc(Cl)ccc3Cl)nc3nc(=S)[nH]c(N)c23)cc1	41.8 µM
CCOC(=O)[C@@H](C)C[C@H](Cc1ccccc1)NC(=O)c1csc([C@@H](C[C@H](C(C)C)N(C)C(=O)[C@@H](NC(=O)[C@H]2CCCCN2C)C(C)(C)C)OC(C)=O)n1	> 16.7 µM
COc1ccc(NC2=C(Br)C(=O)C(C)=C(C)C2=O)cc1	45.7 µM
Cc1cc2c(cc1Cl)SC(NNc1cnc3ccccc3n1)=NS2(=O)=O	> 100 µM
NC(=O)NC(=NCc1ccccc1)NCc1ccccc1	> 100 µM
COC(=O)c1cc2c3c(cc(NCCN)c2[nH]1)N(C(=O)c1cc2cc(OC)c(OC)c(OC)c2[nH]1)CC3CCl (stereo not given)	0.481 µM
C/C(=N\Nc1nc2ccccc2s1)c1cccnn1	> 100 µM

* * *

system: A498 renal; test: NCI tumour cell line growth inhibition, 48 h; in the data active means GI50 below about 0.43 µM; inactive means the rest
Outcomes: active, inactive

compound	category
O=C1c2ccccc2-c2c1c1ccccc1c(=O)n2CCNCCCNCCn1c2c(c3ccccc3c1=O)C(=O)c1ccccc1-2	inactive
O=C(Nc1cc(-c2ccccc2)[nH]n1)c1ccc(Cl)cc1	inactive
FC(F)(F)c1ccc2c(Nc3cccc(C4CC(c5ccccc5)=NN4c4ccc(Cl)cc4)c3)ccnc2c1 (stereo not given)	inactive
CCOC(=O)[C@@H](C)C[C@H](Cc1ccccc1)NC(=O)c1csc([C@@H](C[C@H](C(C)C)N(C)C(=O)[C@@H](NC(=O)[C@H]2CCCCN2C)C(C)(C)C)OC(C)=O)n1	active
CNC(=O)c1cn(C[C@H](F)CCc2ccc(NC(=O)Cc3cc(OC4CC(F)(F)C4)cc(C)n3)nn2)nn1	active
CN1CCN(Cc2ccc(NC(=O)c3ccc(C(C)(C)C)c(C#Cc4cnc5cccnn45)c3)cc2C(F)(F)F)CC1	inactive
CCN(Cc1c(F)cccc1F)c1ccc(CO)c(Cl)c1	active
Cc1c(C(=O)NN)nnn1-c1ccnc2c(C(F)(F)F)cccc12	inactive
C=CCOc1c(Br)cc(Br)cc1Br	inactive
CNc1nc(NC2CCCC2)nc(Sc2ccc(OC)cc2)n1	inactive

* * *

tested on: NCI-H460 lung
Labels: active, inactive

compound	category
COC(=O)NC/C=C\c1nc(CC/C=C\C(=O)OC2CC3CC(=O)O[C@@H](/C=C/CC(C)C)C[C@@H]4CCC(C)C(C[C@@H](OC)CC(C2)O3)O4)co1 (stereo not given in full)	active
CCN(CCO)CCNc1ccc(C)c2sc3cc(Cl)ccc3c(=O)c12	inactive
NC(N)=N/N=C/c1c(-c2ccccn2)nc2sc(Cl)cn12	inactive
COC(=O)c1c(O)ccc2[nH]c(C)c(C#N)c12	inactive
CCOC(=O)[C@@H](C)C[C@H](Cc1ccccc1)NC(=O)c1csc([C@@H](C[C@H](C(C)C)N(C)C(=O)[C@@H](NC(=O)[C@H]2CCCCN2C)C(C)(C)C)OC(C)=O)n1	active

* * *

system: SF-539 CNS; test: NCI tumour cell line growth inhibition, 48 h
TGI: recorded values
readout type: TGI

> print(dat)
                                    compound    result
 1  Cc1ncc(NC(=O)c2ccc(CN3CCN(C)CC3)c(C(F)(F)F)c2)cc1Nc1nccc(-c2cccnc2)n1   24.4 µM
 2                    CC1=NC(C)(C)N(O)C1(C)C  > 100 µM
 3  OCC1OC(O[C@H]2CN3[C@H](O)[C@@H](O)[C@H](O)[C@H]3C2O)C(O)C(O)C1O (stereo not given in full)  > 100 µM
 4                  N/C(CSCCSC/C(N)=N/O)=N\O  > 100 µM
 5  Cc1ncc([N+](=O)[O-])n1CCNC(=O)CCCCn1ccnc1[N+](=O)[O-]  > 100 µM
 6  COC(=O)/C(=N\NC(=S)NN)C(C(=O)C(=O)Nc1ccccc1C(N)=O)c1nc2ccccc2[nH]c1=O (stereo not given)  > 100 µM
 7  Nc1nc(Nc2ccc(OCc3cccc(F)c3)cc2)c2c(n1)[nH]c1ccc(O)cc12   3.31 µM
 8  COc1cc2c(cc1O)CC[n+]1cc3c(OC)c(OC)ccc3cc1-2  > 100 µM
 9  Cc1noc(C)c1-c1ccc2[nH]c(=O)n3c2c1OC[C@@H]3c1ccccn1  > 100 µM
10  O=[N+]([O-])c1ccc2nc3c(nc2c1)-c1c2ccccc2cc2cccc-3c12   40.5 µM

* * *

test system: SK-MEL-2 melanoma; test: NCI tumour cell line growth inhibition, 48 h
Form field: TGI (one value per entry).

compound	TGI
CC/C=C\C/C=C\C/C=C\CCCCCCCC(=O)OC(COC(=O)CCCCCCCCCCCCCCCCC)COC1OC(CO)C(O)C(O)C1O (stereo not drawn)	> 25 µM
C=C(C)[C@@H]1CC[C@@]2(C(=O)O)CC[C@]3(C)C(CCC4[C@@]5(C)CCC(OS(=O)(=O)c6ccccc6)C(C)(C)C5CC[C@]43C)C12 (stereo partly drawn)	16.3 µM
Cc1ccsc1C(=S)Nc1ccc(Cl)c(C(=O)OC(C(C)C)C(C)C)c1	25.8 µM
CCOC(=O)C(NC(=O)c1ccc(N=NN(C)C)cc1)C(C)C (stereo not drawn)	> 100 µM
COc1ccc(/C=N/Nc2nc3ccccc3c(=O)n2-c2ccccc2)c(OCc2ccccc2)c1	> 100 µM
N#CC(C#N)=Cc1cccc(Oc2ccccc2)c1	49 µM
CN1CCN(C)C1c1cccc(C2N(C)CCN2C)c1	> 100 µM
N#Cc1c(-c2ccccc2)nc2c(c(-c3ccccc3)nn2-c2ccccc2)c1-c1ccc(O)cc1	5.65 µM
CC(C)(C)OC(=O)c1ccc(NCc2cc(O)ccc2O)cc1	18.8 µM
Nc1n[nH]c2ccccc12	> 100 µM
COC(=O)/C(=N\NC(=S)NN)C(C(=O)C(=O)Nc1ccccc1C(N)=O)c1nc2ccccc2[nH]c1=O (stereo not drawn)	> 100 µM
O=C1N[C@@H](O)[C@@H]2ON=C(c3ccccc3)[C@H]12	> 100 µM
c1ccc([P+](Cc2csnn2)(c2ccccc2)c2ccccc2)cc1	> 100 µM
Cc1noc(C)c1-c1ccc2[nH]c(=O)n3c2c1OC[C@@H]3c1ccccn1	> 100 µM
CC1=Nc2c(ccc3c2C(=O)c2ccccc2C3=O)NC(c2ccncc2)C1 (stereo not drawn)	> 100 µM
COC(=O)C1=C(C(=O)OC)C2(C)CCC(=O)C1O2 (stereo not drawn)	> 10 µM
CC(=O)OCCOCBr	> 100 µM
CNc1nc(NC2CCCC2)nc(Sc2ccc(OC)cc2)n1	> 10 µM
